assay: in vivo; format: in vivo; conditions: in vivo; oral, non rodents; increasing doses up to 30 mg/kg; preliminary; read-out: maximum tolerated dose: highest oral dose without apparent symptoms
measurement_name: MTD

Query: Please list MTD recorded for the compound CC(C(=O)OCCCCO[N+](=O)[O-])c1ccc(-c2ccccc2)c(F)c1 (stereo not shown)
Result: ≥ 30 mg/kg

###

experiment: in vivo; assay type: in vivo; conditions: in vivo, po; read-out: maximum tolerated dose: highest oral dose without apparent symptoms
measurement_name: MTD

Query: Please list MTD recorded for the compound CC(C(=O)OCCCCO[N+](=O)[O-])c1cccc(C(=O)c2ccccc2)c1 (stereo not shown)
Result: ≥ 30 mg/kg
